The reported numbers originate from patent US20140301945A1.

Target: T1, recombinant human SOD1 (biomol, Hamburg) (human, UniProt P00441 2-154, limits assumed)
T1 construct: Bought protein; also called recombinant human superoxide dismutase 1; Recombinant SOD1
T1 sequence (P00441 2-154 limits assumed): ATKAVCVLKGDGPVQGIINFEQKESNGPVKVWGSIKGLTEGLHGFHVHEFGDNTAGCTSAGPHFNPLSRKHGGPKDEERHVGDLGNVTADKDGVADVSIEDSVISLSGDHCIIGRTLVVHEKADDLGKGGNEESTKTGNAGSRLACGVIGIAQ
Experiment: direct ELISA, recombinant SOD1 coated at 20 µg/ml
Assay Endpoint: pEC50
In plain terms, pEC50 is the concentration in mol/L turned into minus its base-10 logarithm.

# Binder, pEC50
data = [
    ("NI-204.67E12 (antibody, human IgG1, V domains shown) VH: EVQLLESGGGLIRPGGSLRLSCAASGFTFSNYAMGWVRQAPGKGLEWVSAISGNGGSTYYGGSVKGRFTISRDKSKNTLYLQMNNLRADDTAVYFCAKLEAVAPTLTLRYFKHWGKGTLVTVSS VL: DIQMTQSPSTLSASVGDRVTITCRASQSISRWLAWYQQRPGRAPDLLIYDASNLESGVPSRFSGSGSGTEFTLTISSLQPGDFATYYCQQYYSYVYTFGQGTKLEIK", 9.70),
    ("NI-204.12G7 (antibody, human IgG1, V domains shown) VH: EVQLVESGAEVKKPGASVTLSCKASGYTFTAYYIHWVRQAREQGLEWMGVINPSTGTTFYAQNFPDRVSVTRDTSTSTVFMELHNLKSEDTAVYYCARAISEHGSGSYSPYYWGQGTLVTVSS VL: SYVLTQPPSVSVSLGQMAAITCSGEALPKKYGYWYQQKPGQVPVLLIYRDVERPSGVPDRFSGSSSGTMVTLTISGVQAEDEADYYCLSADSSGTWVFGGGTKLTVL", 10.22),
    ("NI-204.7G5 (antibody, human IgG1, V domains shown) VH: EVQLVESGGGVVQAGGSLRLSCVASGLTFSSYGMHWVRQAPGKGLEWVAVISYDGRSKFYADSVKGRFTISRDNSKNTLYLQMNSLRAEDAAVYYCANARVRDACSGTRCDKFGFYMDVWGKGTTVTVSS VL: SYVLTQPPSVSVSPGQTARITCSGDALPKKYAYWYQQKSGQAPVLVIYEDIKRPSGIPERFSGSSSGTMATLTISGAQVEDEGDYYCYSADRSGNRWAFGGGTKLTVL", 7.89),
]

IN: Would you kindly share the measured pEC50 for NI-204.34A3 (antibody, human IgG1, V domains shown) VH: EVQLVESGGGLVKPGGSLRVSCDVSGQRLSKAWMNWVRQTPTRGLEWVGLIKRDADGGTTEFAAPVEGRFTISRDDIQNTMTLHMTRLRVDDTGVYYCVAGDIGCIKENCRWGEGTTVTVSS VL: SYELTQPPSVSVSPGQTARITCSGDALPTKFAFWYQQKSGQAPVLVIYEDDKRPSGIPQRFSGSSSGTTATLTISGAQEEDDADYYCYSKDSTNVERVFGTGTKLSVL ?
OUT: 8.70

IN: Do the same for NI-204.6H1 (antibody, human IgG1, V domains shown) VH: QVQLQQWGAGRLRPSETLSLTCAVYGGSFNGYARTWIRQPPGKGLEWIGEIDHRENTNYNPSLKSRVTMSVDTSKNQFSLRLNSVTAADTAVYFCARGQKNAKDQHEGFRYWGRGTLVTVSS VL: SYELTQPPSVSVSPGQTARITCSGDALPKQFAYWYQQKSGQAPKLVIFKDTERPSGIPERFSASSSGTKATLTISGVQAEDEADYYCQSADRTATSWVFGGGTKLTVL please
OUT: 8.70
